Each recorded value in this set is attributed to the RNAGym collection of RNA variant scans (doi:10.1002/anie.201605470).

B1: Osa-1-4 twister ribozyme (parent)
chain: CCGCCUAACACUGCCAAUGCCGGUCCCAAGCCCGGAUAAAAGUGGAGGGGGCGG

# Variants of: B1
# MEASUREMENT NOTES: self-cleavage, relative activity (ratio to wild type); higher = more cleavage; co-transcriptional

VARIANT DESCRIPTION	self-cleavage
G30U G50A	0.03
G44C G49A	0.11
A28C C31U	0.84
A40U U43G	0.1
C20A G54A	0.75
G19A G44C	0.72
G49U G50C	0.31
A36G A46C	0.08
C20A G45A	0.45
A29C C33G	0.01
C9A U37C	0.53
C27A G49U	0.04
C21A U12G	0.12
A28C C21A	0.53
A41C G51C	0.07
A28U G30C	0.05
A7U G13U	0.06
A40U G51U	0.1
C32G G22U	0.07
A17U G54U	0.99
G13U U37C	0.03
A41C C21G	0.08
